# measurement_description: yeast display, Sf9 membrane polyspecificity reagent, FACS + sequencing; frameworks hold sequencing errors
property_measured: polyreactivity (PSR sort gate)

Sample records with polyreactivity (PSR sort gate):
QVQLVDSGGGLVQAGGSLRLSCAASGNTFRYYVMGWYRQAPGKERELVAASTSSGGNTYYADSVKGRFTISRDNAKNTVYLQMNSLKPEDTAVYYCAASYDINYYFSDYNYWGQGTQVTVSS high polyreactivity
QVQLVESGGGLVHAGGSLRLSCAASGSIFHFNAMGWYRQAPGKERELVARISIGGGSTYYADSVKGRFTISRDNAKNTVYFQMNSLKPEDTAVYSCAVDGSPRNKYDYWGQGTQVTVSS high polyreactivity
QVQLVESGGGLVQAGGSLRLSCAASGSTFSKNAMGWYRQAPGKERELVASISSSGGSTYYADSVKGRFTISRDNAKNTVYLQMNSLKPEDTAVYYCNRRWYARGEYWGQGTQVTVSS high polyreactivity
QVQLVESAGGLVQAGGTLRLSCAASGRIIYRYGMGWYRQAPGKERELVASITRGGSTYYADSVKGRFTISRDNAKNTVYLQMNSLKPEDTAVYYCATKSSAGYDYWGQGTQVTVSS low polyreactivity
QVQLVESGGGLVQAGGSLRLSCASSGLTFALYAMGWYRQAPGKEREFVAAITGSGGSTYYADSVKGRFTISRDNAKHTVYLQMNSLKPEYTAVYYCNKLFYRWRIVDKYYYWGQGTQVTVSS high polyreactivity
QVQLVESGGGLVQAGGSLRLSCAASGNIFVLNPMGWYRQATCKETELVAAISRSGVRTYYADSVKGRFTISRDNAKNTVYLQMNSLKPEDTAVYYCAAVYKRLQPYGYWGQGTQETVSS high polyreactivity
QVQLVDSGGGLVQAGGSLRLSCAASGRIFYYYAMGWYRQAPGKERELVAAISWNGGTTYYAESVKGRFTISRDNAKNTVYLQINSLKPEDTAVYYCNAVLYRGPPGSRMDYWGQGTQVTVSS high polyreactivity
QVQLVESGGGLVQAGGSLRLSCAASGSIFYFYAMGWYRQAPGKERELVAAITSGGSTYYADSVEGRFTISRDNAKNTVYLQMNSLKPEDTAVYYCNAVSSYGYDYWGQGTQVTVSS high polyreactivity

stdin: Requested field: polyreactivity (PSR sort gate). Item: QVQLVESGGGLVQAGGSLRLSCAASGITFRAYVMGWYRQAPGKERELVAAINRRGGSTYYADSVKGRFTISRDNEKNTVYLQMNSLKPEDTAVYYCGNGDFDYWGQGTQVTVSS
stdout: high polyreactivity

stdin: What value of polyreactivity (PSR sort gate) has been reported for the following sequence? QVQLVESGGGLVQAGGSLRLSCAASGGIFYSNAMGWYRPAPGKERELVAAISSSGGSTYYADSVKGRFTISRDNAKNTVYLQMNSLKPEDTAVYYCAARPTVRPVVRFGYWGQGTQVTVSS
stdout: high polyreactivity

stdin: Requested field: polyreactivity (PSR sort gate). Item: QVQLVESGGGLVQAGGSLRLSCAASGSILLTNTMGWYRQAPGKERELVADINSGASTNYADSVKGRFTISRDNAKNTVYLQMNSLKPEDTAVYYCAADTKGGTYEYDYWGQGTKVTVSS
stdout: low polyreactivity

* * *

# measurement_description: yeast display, Sf9 membrane polyspecificity reagent, FACS + sequencing; frameworks hold sequencing errors
property_measured: polyreactivity (PSR sort gate)

Reference set (5 entries):
QVQLVESGGGLVQAGCSLRLSCAASGSIFRYYAMGWYRQAPGKERELVAAITSSGGSTYYADSVKGRFTISRDNSKNTVYLQMNSLKPEDTAVYYCNARHVRYSRRENDYWGQGTQVTVSS high polyreactivity
QVQLVESGGGLVQAGGSLRLSCAASGSITPRNAMGWYRQAPGKERELVARISGSGGTTYYADSVKGRFTISRDNAKNTVYLQMKSLKPEDTAVYYCAASVRWNKYTLYDYWGQGTQVTVSS low polyreactivity
QVQLVESGGCLVQAGGSLRFSCAASGLTLFRYAMGWYRQAPGKERELVAAIDYGGGTYYADSVKGRFRISRDNAKNTVYLQMNSLKPEDTAVYYCAVEPEYKYYEGDYWGQGTQVNVSS low polyreactivity
QVQLVESGGGLVQAGGSLRLSCAASGSTFNSYAMGWYRQAPGKESELVAAITSSGSRTRYADSVKGRFTISRDNAKNTVYLQMNSLKPEDTAVYYCAAVYRLKSGGVWRDSQFGYWGQGTQVTVSS high polyreactivity
QVQLVESGGGLFQAGGSLRLSCAASGSIFRVYGMGWYRQAPGKERDLVAAITWSGGSTYYADSVKGRFTISRDNAKNTLYVQINSLKPDATAVYYCAARARPRYYRPPYDYWGQGTQVTVSS high polyreactivity

stdin: Fill blank: measured polyreactivity (PSR sort gate) of the sequence QVHLVESGGGLVQAGGSLRLSCAASGGNFRPNAMGWYRQAPGKERELVASITRGGSTNYADSVKGRFTISRDNAKNTVYLQMNSLKPEDTAVYYCSALLRYTRTLYYSWGQGTQVTVSS is ____.
stdout: high polyreactivity

stdin: Reported polyreactivity (PSR sort gate) for QVQLVESGGGLVQAGGSLRLSCAASGFIFPANAMGWSRQAPGKEREFVAAISRSGGTTYYADSVKGRFTISRDHAKNTVYLQMNSLKPEDTAVYYCAARYAIGPGYDYWGQGTQVTVSS : what is it?
stdout: high polyreactivity

stdin: Request the reported polyreactivity (PSR sort gate) associated with QVQLVESGGGLVQAGGSLRLSCAASGLIFRIYAMGWYRQAPGKERELVAAISSTGSRTYYADSVKGRFTISRDNAKNTVYLQMNSLKPEDTAVYYCAAKAYINNYDYWGQGTQVTVSS
stdout: high polyreactivity

Where do these numbers come from? They come from the nanobody polyreactivity screen of Harvey et al. (2022).
